biological target: 3-hydroxyacyl-CoA dehydrogenase type-2 (Homo sapiens) (UniProt Q99714); test: Inhibition of human full length N-terminal GST-tagged 17beta-HSD10 expressed in Escherichia coli BL21 DE3 Codon plus using [6,7-3H]-labeled E2/E2 as substrate and NADH at 1 uM after 30 mins by HPLC based radioflow detection method
Sequence (Q99714 whole entry): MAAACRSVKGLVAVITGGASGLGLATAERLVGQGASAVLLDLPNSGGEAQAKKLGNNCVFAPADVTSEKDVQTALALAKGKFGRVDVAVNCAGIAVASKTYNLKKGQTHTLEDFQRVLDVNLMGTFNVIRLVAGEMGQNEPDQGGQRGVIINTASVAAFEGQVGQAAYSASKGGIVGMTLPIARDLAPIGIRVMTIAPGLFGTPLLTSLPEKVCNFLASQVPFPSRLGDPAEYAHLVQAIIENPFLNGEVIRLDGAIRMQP
Calls of active or inactive are those of the source. No cut-off for these calls is given here.
experimental.endpoint: inhibition

| cpd.smiles | assay.result |
| --- | --- |
| Cc1ccc2nc(C(=O)c3ccc(F)c(O)c3)ccc2c1 | inactive |
| O=C(c1ccc(F)c(O)c1)c1cccc(-c2cccc(O)c2F)n1 | inactive |
| O=C(c1ccc(F)c(O)c1)c1ccc2ccc(-c3nnn[nH]3)cc2n1 | inactive |
| Oc1cc(Nc2cccc(-c3cccc(O)c3F)n2)ccc1F | inactive |
| O=C(c1ccc(F)c(O)c1)c1ccc2ccccc2c1 | inactive |
| N#Cc1ccc2ccc(C(=O)c3ccc(F)c(O)c3)nc2c1 | inactive |
| Oc1cc(Oc2cccc(-c3cccc(O)c3F)n2)ccc1F | 17% |
| CN(c1ccc(F)c(O)c1)c1cccc(-c2cccc(O)c2F)n1 | 19% |
| Nc1ccc2ccc(C(=O)c3ccc(F)c(O)c3)nc2c1 | inactive |
| C=C(c1ccc(F)c(O)c1)c1cccc(-c2cccc(O)c2F)n1 | inactive |
| Cc1cc(-c2ccc3ccc(C(=O)c4ccc(F)c(O)c4)nc3c2)ccc1O | inactive |
| O=C(c1ccc(F)c(O)c1)c1ccc2ccccc2n1 | inactive |
| O=C(c1ccc(F)c(O)c1)c1ccc2cc(O)ccc2n1 | inactive |
